// data source = the supplement of paper PMC10567573

B1: MFF (parent)
chain: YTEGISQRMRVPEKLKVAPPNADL

# Variants of: B1
# experiment_notes: protein stability index of a GFP-peptide fusion (GPS, HEK-293T) (PSI 1-6); higher = more stable;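 further: lentivirally expressed fusions sorted by FACS into six bins by GFP to DsRed ratio, PSI derived from sequencing read proportions per bin multiplied by bin number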
# condition_notes: c terminus: a fixed tail appended
protein stability index values by entry
I'd appreciate a reply containing only the number, no unit.

As a guide, the following entries are already answered.
sequence_chain | protein stability index
YTEGISQRMRVPEKPKVAPPNADL [L15P] | 3.05
YTEGISQRMRVPEKDKVAPPNADL [L15D] | 3.08

Can you look up the measured protein stability index of YTEGISQRMRVPEKLKVAPPNADP [L24P] for me?
2.92

Same lookup for YTEGLSQRMRVPEKLKVAPPNADL [I5L] , please.
3.06

Same lookup for YTEGISQRMRVPEKLKVAPPNGDL [A22G] , please.
2.96

Same lookup for YTRGISQRMRVPEKLKVAPPNADL [E3R] , please.
3.03
